target-entity: human V1a receptor (Homo sapiens)
Construct: expressed in transfected cells; host or cells: HEK293 cells, transiently transfected; membranes prepared
experiment-description: human V1a receptor binding (3H-Vasopressin SPA, HEK293 membranes)
measurement-parameters: membranes of HEK293 cells transiently transfected with human V1a receptor, Ki by Cheng-Prussoff, read-out: pKi (hV1a) (converted)
metric: Ki (nM)
The reply should contain only the number, in nM.

Request: May I ask what Ki has been recorded for "CCN1Cc2cc(Cl)ccc2-n2c(nnc2[C@H]2CC[C@H](c3noc(C)n3)CC2)C1" ?
Response: 6.76

---

target-entity: human V1a receptor (Homo sapiens, UniProt P37288)
Construct: expressed in transfected cells; host or cells: HEK293 cells, transiently transfected; membranes prepared
Sequence (P37288 whole entry): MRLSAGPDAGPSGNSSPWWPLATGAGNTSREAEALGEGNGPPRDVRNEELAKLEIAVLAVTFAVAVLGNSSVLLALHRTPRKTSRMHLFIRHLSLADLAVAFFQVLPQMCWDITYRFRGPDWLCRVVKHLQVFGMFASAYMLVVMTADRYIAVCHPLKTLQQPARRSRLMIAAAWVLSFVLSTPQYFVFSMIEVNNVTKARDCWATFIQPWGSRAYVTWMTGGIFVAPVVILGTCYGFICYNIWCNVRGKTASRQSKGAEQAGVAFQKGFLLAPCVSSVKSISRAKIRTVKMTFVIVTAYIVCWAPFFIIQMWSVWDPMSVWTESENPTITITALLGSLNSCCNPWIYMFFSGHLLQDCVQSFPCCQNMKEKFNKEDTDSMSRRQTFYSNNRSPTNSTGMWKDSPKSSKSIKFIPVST
experiment-description: human V1a receptor binding (3H-Vasopressin SPA, HEK293 membranes)
measurement-parameters: membranes of HEK293 cells transiently transfected with human V1a receptor, Ki by Cheng-Prussoff, read-out: pKi (hV1a) (converted)
Where a name gives a salt, the structure may show the parent alone.
metric: Ki (nM)
Give the quantity in nM, number only.

Request: Any idea what Ki was measured for "Cc1nc([C@H]2CC[C@H](c3nnc4n3-c3ccc(Cl)cc3CN(C(=O)OC(C)(C)C)C4)CC2)sc1C" ?
Response: 0.794

Request: Entry to check: "Cc1nc([C@H]2CC[C@H](c3nnc4n3-c3ccc(Cl)cc3CN(C3CCC3)C4)CC2)no1"
Response: 1.51

Request: Same thing, different compound: "Cc1nnc([C@H]2CC[C@H](c3nnc4n3-c3ccc(Cl)cc3CN(C(=O)OC(C)(C)C)C4)CC2)o1"
Response: 1.58

Request: Entry "Cc1cc([C@H]2CC[C@H](c3nnc4n3-c3ccc(Cl)cc3CN(C(=O)OC(C)(C)C)C4)CC2)no1" please
Response: 0.302

Request: Repeat with "Cc1nc([C@H]2CC[C@H](c3nnc4n3-c3ccc(Cl)cc3CN(C)C4)CC2)sc1C"
Response: 2.29

Request: And what about the compound Cc1nc([C@H]2CC[C@H](c3nnc4n3-c3ccc(Cl)cc3CNC4)CC2)no1 [Example 73, hydrochloride] ?
Response: 15.8

Request: Next compound up: "Cc1nc([C@H]2CC[C@@H](c3nnc4n3-c3ccc(Cl)cc3CN(C(=O)OC(C)(C)C)C4)CC2)no1"
Response: 14.8
